chemical-string: CCN1c2ncc(CCc3cccc(I)c3)cc2C(=O)N(C)c2ccc(Cl)nc21
melting point: 143 to 145 °C
--
chemical-string: CC(C)n1nc(-c2c(-c3ccccc3)nn3ccc(Oc4ccccn4)cc23)ccc1=O
melting point: 140 to 142 °C
--
chemical-string: Cc1cc2c(-c3cccc(/C=C/c4nnn[nH]4)c3)c(CC(=O)Nc3ccc(F)cc3C(F)(F)F)c(=O)oc2cc1Cl
melting point: 216 to 218 °C
--
chemical-string: CCOC(=O)c1ccc(/C=C(\C)c2ccc3c(c2)C(C)(C)CC3(C)C)cc1
melting point: 70 to 71 °C

----------
The reader will find reported melting point values listed item by item below.
endpoint-name: melting point

compound: O=C(OCc1ccccc1)On1nnc2ccccc21
endpoint-name: melting point
value: 130 to 131 °C

compound: CCCc1nc(N)nc(N)c1N1CCN(c2ccc(C(=O)N[C@@H](CCC(=O)O)C(=O)O)cc2)CC1
endpoint-name: melting point
value: 280 to 284 °C

compound: CC1Oc2c(C#N)cc(F)cc2C=C1n1nc(C(F)(F)F)n(C)c1=S (stereo not given)
endpoint-name: melting point
value: 144 °C

compound: CCOC(=O)CCc1ccc(C2COc3c(C)c(C)c(NC(=O)CC(C)(C)C)c(C)c32)cc1 (stereo not given)
endpoint-name: melting point
value: 103 to 105 °C

compound: CCOC(=O)c1ccc2c(c1)C(C)(Cl)C(=S)N2 (stereo not given)
endpoint-name: melting point
value: 205 to 207 °C

compound: CCC(=O)Nc1nc(CN2CCC(c3c[nH]c4ccccc34)CC2)cs1
endpoint-name: melting point
value: 192 to 195 °C

compound: O=C1c2ccccc2CCC1n1cncn1 (stereo not given)
endpoint-name: melting point
value: 96 to 98 °C

compound: CC(C)c1ccc2c(c1)OC1(O)c3cccc(O)c3C(=O)C21O (stereo not given)
endpoint-name: melting point
value: 205 to 207 °C

compound: Cn1nc(-c2c(F)cccc2Cl)nc1C(C)(O)c1ccc(Cl)cc1 (stereo not given)
endpoint-name: melting point
value: 198 to 200 °C

compound: CCCCNC(=O)NS(=O)(=O)c1c(Cl)cccc1-c1ccccc1
endpoint-name: melting point
value: 184 to 186 °C

compound: O=C(Nc1ccc(C(=O)N2Cc3ccccc3Cc3ccccc32)cc1)c1ccccc1
endpoint-name: melting point
value: 219 to 221 °C

compound: CC(C)(C)c1ccc2c(c1)CCC1=C2CCC(=O)N1
endpoint-name: melting point
value: 265 to 268 °C

compound: CCOC(=O)/C=C/c1cn(C)nc1OCc1ccc(OCc2nc(-c3ccco3)oc2C)c(OC)c1
endpoint-name: melting point
value: 135 to 136 °C

compound: CN1CCCC1=NCCOS(=O)(=O)Oc1c[nH]c2ccccc12
endpoint-name: melting point
value: 154 to 158 °C

compound: N#CCCN1C(=O)C2(OCCCO2)c2ccc(Cl)cc21
endpoint-name: melting point
value: 163 to 164 °C

compound: O=CN(O)C1(CS(=O)(=O)c2ccc(Oc3ccc(OC(F)(F)F)cc3)cc2)CCC2(CC1)OCCO2
endpoint-name: melting point
value: 133 to 134 °C

compound: COc1ccc(OC)c(Cc2cnc3nc(N)nc(N)c3c2C)c1
endpoint-name: melting point
value: 252 to 254 °C

compound: BrCCCOc1ccc(Oc2ccccc2)cc1
endpoint-name: melting point
value: 54 to 55 °C

compound: O=C(Nc1ccc(-c2cnc(-c3ccc(NC(=O)c4cccnc4)cc3)[nH]2)cc1)c1cccnc1
endpoint-name: melting point
value: 317 to 319 °C

compound: CCCOCCOC(=O)C1=C(C)NC(C)=C([N+](=O)[O-])C1c1cccc([N+](=O)[O-])c1 (stereo not given)
endpoint-name: melting point
value: 161 °C

----------
The reader will find reported melting point values listed item by item below.

compound: CCc1nn2ccc3c(c2c1CCNC(C)=O)CCO3
melting point: 161 to 162 °C

compound: O=[N+]([O-])c1ccc(SCCn2cnnc2)cc1
melting point: 162 to 165 °C

compound: Cc1c(N2CC[C@H](CNC3CC3)C2)c(F)cc2c(=O)c(C(=O)O)cn([C@@H]3C[C@@H]3F)c12
melting point: 163 to 164 °C

compound: CCCCNC(=O)c1ccc2c(=O)nc(-c3ccccn3)sc2c1
melting point: 194 °C

compound: O=[N+]([O-])c1ccc(NS(=O)(=O)c2cc(Cl)c(Cl)cc2Cl)c(Cl)c1
melting point: 177 to 179 °C

compound: CNC(=C[N+](=O)[O-])NCCCSc1nccc(NC(N)=NCC(F)(F)F)n1
melting point: 189 to 191 °C

compound: ClCc1coc(-c2cc3ccccc3s2)n1
melting point: 150 to 151 °C

compound: O=C1NC(=O)C(c2cccs2)O1 (stereo unspecified)
melting point: 138 to 140 °C

compound: Nc1ccc(CN2CCN(c3ccccc3)CC2)cc1
melting point: 105 °C

compound: FC(F)(F)CNc1nc(Cl)nc(Cl)n1
melting point: 115 to 118 °C

compound: COc1ccc(N2C(=O)O[C@H](COC(=O)c3ccc([N+](=O)[O-])cc3)[C@@H]2C)cc1
melting point: 138 to 140 °C

compound: CCOP(C)(=O)c1cc(Cl)ccc1Cl (stereo unspecified)
melting point: 90 to 91 °C

compound: Cc1ccc(Cl)cc1NC(=O)NCC1(c2ccccc2)CCCCC1
melting point: 200 to 202 °C

compound: COC(=O)C(C(=O)OC)C(C)(N)C(Cc1ccccc1[N+](=O)[O-])c1ccccc1 (stereo unspecified)
melting point: 114 °C

compound: CC1CC2=CC(=O)CCC2C2C(O)CC3(C)C(=O)CCC3C12 (stereo unspecified)
melting point: 200 °C

compound: CC1c2cccn2-c2ccc(F)cc2N1S(=O)(=O)c1ccc(O)cc1 (stereo unspecified)
melting point: 180 to 182 °C

compound: O=[N+]([O-])c1ccc(-c2cccs2)cc1
melting point: 124 to 126 °C

compound: C=CCOc1nc(N)nc(-c2ccccc2)c1-c1ccc(=O)n(C(C)C)n1
melting point: 130 to 132 °C

compound: OCC1CCCN(c2nc(-c3ccccc3)nc3ccccc23)C1 (stereo unspecified)
melting point: 116 to 118 °C

compound: COc1ccc(/C=C/C(=O)C2C(=O)CC(c3ccc(OC)cc3)C([N+](=O)[O-])C2c2cccs2)cc1 (stereo unspecified)
melting point: 160 to 162 °C

compound: COC(=O)c1c(OC(C)C)c(Br)c(Br)n1C
melting point: 42 to 45 °C

----------
compound: COc1ccc(Cn2c(=O)nc(C3CC3)c3cc(-c4cccc(Cl)c4)ccc32)cc1
melting point: 173 to 174 °C
--
compound: CN(C)C(=O)c1cc(Cl)c(N)c(Cl)c1
melting point: 134 °C
--
compound: O=C(O)CCCCCCCCc1ccc(O)cc1
melting point: 103 to 105 °C
--
compound: CCCCCCOc1cccc(C[C@H](NC(=O)c2cccc(-c3ncco3)c2)[C@H](O)CNCc2cccc(CC)c2)c1
melting point: 117 to 120 °C
--
compound: Cn1nc(C(=O)C(=O)c2ccccc2)ccc1=O
melting point: 89 to 92 °C
--
compound: CCCCOC(=O)c1ccc(CN2CCCN3CCCC32)cc1 (stereo not given)
melting point: 64 to 67 °C
--
compound: O=C1OCC2CCC1(c1ccc(Cl)cc1Cl)O2 (stereo not given)
melting point: 136 to 137 °C
--
compound: N=C(Cc1ccc(F)cc1)Nc1ncccc1OCc1ccccc1
melting point: 86 to 93 °C
--
compound: Cc1[nH]cnc1/C=C1\CCc2sc3ccccc3c2C1=O
melting point: 220 to 223 °C
--
compound: COc1ccc(C=CC2=NN(C(C)=O)C(C)Cc3cc(OC)c(OC)cc32)c(OC)c1 (stereo not given)
melting point: 85 to 87 °C

----------
compound: Oc1c(C23CC4CC(CC(C4)C2)C3)ccc2ccccc12
melting point: 209 to 210 °C
//
compound: CN(C)CCOC(=O)c1cccc(Nc2cc(C(C)(C)C)c(O)c(C(C)(C)C)c2)c1
melting point: 119 to 120 °C
//
compound: COc1ccc(S(=O)(=O)Nc2nc(-c3cccc([N+](=O)[O-])c3)c(CN(C)C)s2)cc1OC
melting point: 203 °C
//
compound: FC(F)c1nc2ccccc2n1-c1nc(Oc2ccccc2)nc(N2CCOCC2)n1
melting point: 228 to 231 °C
//
compound: OCCOc1cccc2cnccc12
melting point: 64 to 67 °C
//
compound: O=C1CNc2ncc(I)cc2N1Cc1cccnc1Cl
melting point: 249 °C
//
compound: Cc1cc(=O)n2c3c(cc(C(O)(C(F)(F)F)C(F)(F)F)cc13)CC2
melting point: 337 to 338 °C
//
compound: O=C(O)c1cccc(C(c2cc(F)ccc2F)S(=O)(=O)c2ccc(Cl)cc2)n1 (stereo not given)
melting point: 200 to 201 °C
//
compound: Cc1cc(C)c(C(O)c2ccc(-n3ccnc3)c(Cl)c2)c(C)c1 (stereo not given)
melting point: 156 to 157 °C
//
compound: NC(=O)c1nn(-c2ccc3c(c2)OCO3)c2c1CCc1ccc(NC(=O)c3cccnc3N)cc1-2
melting point: 265 to 267 °C
//
compound: O=C1C(c2ccccc2)=C(c2cccc(Cl)c2)C(=O)N1c1ccc(Cl)cc1
melting point: 51 °C
//
compound: O=C(c1ccc(S(=O)(=O)c2ccc3cc(Cl)ccc3c2)cc1)N1CCN(c2ccncc2)CC1
melting point: 267 to 269 °C
//
compound: CC1C(C)(C)c2ccc(O)cc2C1(C)C (stereo not given)
melting point: 149 °C
//
compound: CC1(C)SCCN(S(=O)(=O)c2ccc(-c3ccc(Br)cc3)cc2)C1C(=O)O (stereo not given)
melting point: 178 to 180 °C
//
compound: C=CCN1C(=O)CC(=O)N(c2ccccc2)c2cc(Cl)ccc21
melting point: 199 to 201 °C
//
compound: O=C(Oc1ccccc1)N1CCN2C(=O)OC(Cc3ccccc3)(Cc3ccccc3)C2C1 (stereo not given)
melting point: 140 to 141 °C
//
compound: C=C(C(=O)O)c1ccc2cc(OC)ccc2c1
melting point: 175 °C
//
compound: c1cncc(OCCCCCCOc2cccnc2)c1
melting point: 85 °C
//
compound: COc1ccnc(CSc2nc3cc(Cl)c(Cl)cc3[nH]2)c1C
melting point: 254 to 256 °C
//
compound: Cc1cc(C2=NN[C@H](C)Cc3cc4c(cc32)OCO4)ccc1N
melting point: 193 to 196 °C

Measured values drawn from a melting point compilation (Tetko et al.; mined from patent text by program, amines drawn as free bases though some values may be those of a salt) for this set.
